Sourced from ChEMBL document CHEMBL1134773

target: Integrin alpha-4/beta-1 (Homo sapiens) (UniProt P05556+P13612); assay: Inhibition of alpha4-beta1 lymphoma cell binding to CHO-VCAM-1 cells.; type: cell-based
Parameter: Adhesion (%)

[A] CC(C)C[C@@H]1NC(=O)[C@@H](Cc2ccccc2)NC(=O)[C@H]2CCCN2C(=O)[C@@H](CC(=O)O)NC(=O)[C@H]([C@@H](C)O)NC(=O)[C@@H](CC(=O)O)NC1=O
[B] CC(C)C[C@@H]1NC(=O)[C@@H](Cc2ccccc2)NC(=O)[C@H]2CCCN2C(=O)[C@@H](C)NC(=O)[C@H]([C@@H](C)O)NC(=O)[C@@H](CC(=O)O)NC1=O
Request: Which record would sort first by descending Adhesion, A or B ? Answer by quoting the chosen item's label.
Response: B
(B: 109%, A: 72%)

----------
target: Integrin alpha-4/beta-7 (Homo sapiens) (UniProt P13612+P26010); experiment: Ability to inhibit adhesion of alpha4-beta7 integrin expressing 38-beta7 lymphoma cells to chinese hamster ovary (CHO) cells stably transfected with MAdCAM-1; type: cell-based
Parameter: Adhesion (%)

Example entries begin here.
| Molecule | Target System | Adhesion, % |
| --- | --- | --- |
| CC[C@H](C)[C@H]1NC(=O)[C@H](C)NC(=O)[C@@H](C)NC(=O)[C@H]([C@@H](C)O)NC(=O)[C@@H](CC(=O)O)NC1=O (stereo in doubt; P1) | Integrin alpha-4/beta-7 (Homo sapiens) (UniProt P13612+P26010) | 100 |
| CC(C)C[C@@H]1NC(=O)[C@@H](Cc2ccc(C(=O)c3ccccc3)cc2)NC(=O)[C@H]2CCCN2C(=O)[C@@H](CC(=O)O)NC(=O)[C@H]([C@@H](C)O)NC(=O)[C@@H](CC(=O)O)NC1=O | Integrin alpha-4/beta-7 (Homo sapiens) (UniProt P13612+P26010) | 10 |

[A] C[C@H]1NC(=O)[C@H]2CCCN2C(=O)[C@@H](C)NC(=O)[C@H]([C@@H](C)O)NC(=O)[C@@H](CC(=O)O)NC(=O)CNC1=O
[B] CC(C)C[C@@H]1NC(=O)[C@@H]([C@@H](C)O)NC(=O)[C@H]2CCCN2C(=O)[C@@H](C)NC(=O)[C@H]([C@@H](C)O)NC(=O)[C@@H](CC(=O)O)NC1=O
Request: From the recorded data, which exceeds the other in Adhesion: A or B ? Please respond with the label that marks your chosen entry.
Response: A

[I] CC(C)C[C@@H]1NC(=O)[C@H]2CCCN2C(=O)[C@@H](C)NC(=O)[C@H]([C@@H](C)O)NC(=O)[C@@H](CC(=O)O)NC1=O
[II] CC(C)C[C@@H]1NC(=O)[C@@H](Cc2ccc(O)cc2)NC(=O)[C@H]2CCCN2C(=O)[C@@H](CC(=O)O)NC(=O)[C@H]([C@@H](C)O)NC(=O)[C@@H](CC(=O)O)NC1=O
[III] CC(C)C[C@@H]1NC(=O)[C@@H](Cc2c[nH]cn2)NC(=O)[C@H]2CCCN2C(=O)[C@@H](CC(=O)O)NC(=O)[C@H]([C@@H](C)O)NC(=O)[C@@H](CC(=O)O)NC1=O
Request: Descending sort on Adhesion required. Your task in answering is to list the labels in the requested order.
Response: I, III, II
(I: 74%, III: 9%, II: 3%)

----------
biological target: Integrin alpha-4/beta-7 (Homo sapiens) (UniProt P13612+P26010); assay: Ability to inhibit adhesion of alpha4-beta7 integrin expressing 38-beta7 lymphoma cells to chinese hamster ovary (CHO) cells stably transfected with MAdCAM-1; assay type: cell-based
Parameter: Adhesion (%)

| Compound | Adhesion (%) |
| --- | --- |
| CC(C)C[C@@H]1NC(=O)[C@@H](C)NC(=O)[C@H](C)NC(=O)[C@@H](C)NC(=O)[C@H]([C@@H](C)O)NC(=O)[C@@H](CC(=O)O)NC1=O | 85 |
| CC(C)C[C@@H]1NC(=O)[C@@H](CC(=O)O)NC(=O)[C@@H](CC(=O)O)NC(=O)[C@@H](C)NC(=O)[C@H]([C@@H](C)O)NC(=O)[C@@H](CC(=O)O)NC1=O | 99 |
| CC(C)C[C@@H]1NC(=O)[C@@H](C)NC(=O)[C@H]2CCCN2C(=O)[C@@H](C)NC(=O)CNC(=O)[C@@H](CC(=O)O)NC1=O | 91 |

[P] CC[C@H](C)[C@H]1NC(=O)[C@H](C)NC(=O)[C@@H](C)NC(=O)[C@H]([C@@H](C)O)NC(=O)[C@@H](CC(=O)O)NC1=O (stereo in doubt; P6)
[Q] NC(=O)C[C@@H]1NC(=O)CNC(=O)[C@@H](Cc2ccccc2)NC(=O)[C@@H](Cc2c[nH]cn2)NC(=O)[C@@H](CCC(=O)O)NC1=O
[R] CC(C)C[C@@H]1NC(=O)[C@H]2CCCN2C(=O)[C@H](C)NC(=O)[C@@H](C)NC(=O)[C@H]([C@@H](C)O)NC(=O)[C@@H](CC(=O)O)NC1=O
Request: Rank ascending by Adhesion. Answer format: the labels, in the requested order.
Response: R, P, Q

----------
molecular target: Integrin alpha-4/beta-7 (Homo sapiens) (UniProt P13612+P26010); assay: Inhibition of alpha4-beta7 lymphoma cell binding to CHO-VCAM-1 cells.; format: cell-based
Parameter: Adhesion (%)

| Chemical Structure | Adhesion / % |
| --- | --- |
| CC(C)C[C@@H]1NC(=O)[C@@H](Cc2c[nH]cn2)NC(=O)[C@H]2CCCN2C(=O)[C@@H](CC(=O)O)NC(=O)[C@H]([C@@H](C)O)NC(=O)[C@@H](CC(=O)O)NC1=O | 27 |
| CC(C)C[C@@H]1NC(=O)[C@@H](Cc2ccccc2)NC(=O)[C@H]2CCCN2C(=O)[C@@H](C)NC(=O)[C@H]([C@@H](C)O)NC(=O)[C@@H](CC(=O)O)NC1=O | 36 |
| CSCC[C@H]1NC(=O)[C@H]2CCCN2C(=O)[C@@H](CC(=O)O)NC(=O)[C@H]([C@@H](C)O)NC(=O)[C@@H](CC(=O)O)NC(=O)[C@H](CC(C)C)NC1=O | 36 |

----------
biological target: Integrin alpha-4/beta-7 (Homo sapiens) (UniProt P13612+P26010); test: Ability to inhibit adhesion of alpha4-beta7 integrin expressing 38-beta7 lymphoma cells to chinese hamster ovary (CHO) cells stably transfected with MAdCAM-1; type: cell-based
Parameter: Adhesion (%)

Look over these answered cases.
| Compound | Target System | Parameter | Recorded Number |
| --- | --- | --- | --- |
| CC(C)C[C@@H]1NC(=O)[C@@H](Cc2ccc(O)cc2)NC(=O)[C@H]2CCCN2C(=O)[C@@H](CCCCN)NC(=O)[C@H]([C@@H](C)O)NC(=O)[C@@H](CC(=O)O)NC1=O | Integrin alpha-4/beta-7 (Homo sapiens) (UniProt P13612+P26010) | Adhesion | 81 |
| C[C@H]1NC(=O)[C@H]2CCCN2C(=O)[C@@H](CC(=O)O)NC(=O)[C@H]([C@@H](C)O)NC(=O)[C@@H](CC(=O)O)NC(=O)[C@H](c2ccccc2)NC1=O | Integrin alpha-4/beta-7 (Homo sapiens) (UniProt P13612+P26010) | Adhesion | 98 |
| CC(C)C[C@@H]1NC(=O)[C@@H](Cc2ccccc2)NC(=O)[C@@H](Cc2ccccc2)NC(=O)[C@@H](CC(=O)O)NC(=O)[C@H]([C@@H](C)O)NC(=O)[C@@H](CC(=O)O)NC1=O | Integrin alpha-4/beta-7 (Homo sapiens) (UniProt P13612+P26010) | Adhesion | 56 |
| CC(C)C[C@@H]1NC(=O)C(C2CCCCC2)NC(=O)[C@H]2CCCN2C(=O)[C@@H](CC(=O)O)NC(=O)[C@H]([C@@H](C)O)NC(=O)[C@@H](CC(=O)O)NC1=O (some centres not stated) | Integrin alpha-4/beta-7 (Homo sapiens) (UniProt P13612+P26010) | Adhesion | 58 |
| CC[C@H](C)[C@@H]1NC(=O)[C@@H](C)NC(=O)[C@H]2CCCN2C(=O)[C@@H](C)NC(=O)[C@H]([C@@H](C)O)NC(=O)[C@@H](CC(=O)O)NC1=O | Integrin alpha-4/beta-7 (Homo sapiens) (UniProt P13612+P26010) | Adhesion | 64 |

[P] CC(C)C[C@@H]1NC(=O)[C@@H](C)NC(=O)[C@H](C)NC(=O)[C@H]2CCCN2C(=O)[C@H]([C@@H](C)O)NC(=O)[C@@H](CC(=O)O)NC1=O
[Q] CC(C)C[C@@H]1NC(=O)[C@@H](CCC(=O)O)NC(=O)[C@H]2CCCN2C(=O)[C@@H](C)NC(=O)[C@H]([C@@H](C)O)NC(=O)[C@@H](CC(=O)O)NC1=O
[R] CSCC[C@H]1NC(=O)[C@H]2CCCN2C(=O)[C@@H](CC(=O)O)NC(=O)[C@H]([C@@H](C)O)NC(=O)[C@@H](CC(=O)O)NC(=O)[C@H](CC(C)C)NC1=O
[S] CC(C)C[C@@H]1NC(=O)[C@@H](Cc2ccccc2)NC(=O)[C@H]2CCCN2C(=O)[C@@H](CC(=O)O)NC(=O)[C@H]([C@@H](C)O)NC(=O)[C@@H](CC(=O)O)NC1=O
Request: Task for the reader: rank each entry by its Adhesion, from the minimum upward. Your task in answering is to list the labels in the requested order.
Response: S, R, Q, P
(S: 3%, R: 15%, Q: 65%, P: 111%)

[a] CC(C)C[C@@H]1NC(=O)[C@@H](C)NC(=O)[C@H]2CCCN2C(=O)[C@@H](C)NC(=O)[C@H](C(C)C)NC(=O)[C@@H](CC(=O)O)NC1=O
[b] CC[C@H](C)[C@@H]1NC(=O)[C@H](C)NC(=O)[C@@H](C)NC(=O)[C@H]([C@@H](C)O)NC(=O)[C@@H](CC(=O)O)NC1=O
Request: Compare the recorded Adhesion of a and b ; state which is larger. Pick one; state its label.
Response: b
(b: 137%, a: 50%)

[A] CC(C)C[C@@H]1NC(=O)[C@@H](C)NC(=O)[C@@H](Cc2ccccc2)NC(=O)[C@@H](CC(=O)O)NC(=O)[C@H]([C@@H](C)O)NC(=O)[C@@H](CC(=O)O)NC1=O
[B] CC(C)C[C@@H]1NC(=O)[C@@H](C)NC(=O)[C@H]2CCCN2C(=O)[C@@H](C)NC(=O)[C@H](CO)NC(=O)[C@@H](CC(=O)O)NC1=O
[C] CC(C)C[C@@H]1NC(=O)[C@@H](Cc2ccccc2)NC(=O)[C@H]2CCCN2C(=O)[C@@H](C)NC(=O)[C@H]([C@@H](C)O)NC(=O)[C@@H](CC(=O)O)NC1=O
Request: Put the items in sequence by Adhesion, from largest down. The labels, placed in the requested order, form the answer.
Response: B, A, C

[A] CC(C)[C@@H]1NC(=O)[C@@H](C)NC(=O)[C@H]2CCCN2C(=O)[C@@H](C)NC(=O)[C@H]([C@@H](C)O)NC(=O)[C@@H](CC(=O)O)NC1=O
[B] CC(C)C[C@@H]1NC(=O)[C@@H](C)NC(=O)[C@H]2CCCN2C(=O)[C@@H](C)NC(=O)[C@H]([C@@H](C)O)NC(=O)[C@@H](CC(=O)O)NC1=O
Request: Input pair: A , B . Output: entry with lower Adhesion. Write the label of whichever entry you select.
Response: B
